Biological target: D(3) dopamine receptor (Homo sapiens)
Experiment: Displacement of [3H]Spiperone from recombinant human Dopamine D3 receptor expressed in CHO cell membranes at 10 uM after 120 mins relative to control
endpointName: inhibition (%)

Example compounds with recorded inhibition:
{"compound": "Fc1ccc2c(CN3CCC(F)(F)[C@@H](CCc4ccccc4F)C3)c[nH]c2c1", "unitSpec": "%", "inhibition": 54}
{"compound": "COc1ccc2c(CN3CCC(F)(F)C(CCc4ccccc4F)C3)c[nH]c2c1 (racemic)", "unitSpec": "%", "inhibition": 80}
{"compound": "COc1ccc2c(CN3CCC(F)(F)[C@H](CCc4ccc(F)cc4)C3)c[nH]c2c1", "unitSpec": "%", "inhibition": 52}
{"compound": "COc1ccc2c(CN3CCC(F)(F)[C@H](CCc4cccc(F)c4)C3)c[nH]c2c1", "unitSpec": "%", "inhibition": 85}
{"compound": "Fc1ccccc1CCC1CN(Cc2c[nH]c3cc(Cl)ccc23)CCC1(F)F (racemic)", "unitSpec": "%", "inhibition": 69}

P. Fc1ccc(CC[C@H]2CN(Cc3c[nH]c4cc(F)ccc34)CCC2(F)F)cc1
Q. Fc1ccc(CC[C@@H]2CN(Cc3c[nH]c4cc(F)ccc34)CCC2(F)F)cc1
Exam item: Pick one: P or Q . Which one has the lower reported inhibition? Bench note: the answer is the label of the chosen record.
Marked response: P
